# assay_details: Absorbance maximum and extinction coefficient
# Format: physicochemical
# condition_details: pH 9.5
quantity: ε (extinction coefficient)
Give the number first and the unit second.

Check out these entries, answers already filled in.
Query block: Looking for the measured ε (extinction coefficient) of O=c1cc2oc3cc(O)c4ccccc4c3c(-c3ccccc3S(=O)(=O)O)c-2c2ccccc12 , can you help?
Result block: 81000 M⁻¹ cm⁻¹

Query block: # ε (extinction coefficient) lookup, item O=c1ccc2c(-c3ccccc3S(=O)(=O)O)c3ccc(O)cc3oc-2c1
Result block: 78000 M⁻¹ cm⁻¹

Query block: ε (extinction coefficient) for O=C(O)c1ccccc1-c1c2c3ccccc3c(=O)c(Br)c-2oc2c(Br)c(O)c3ccccc3c12 ?
Result block: 24000 M⁻¹ cm⁻¹

Query block: Quick one: ε (extinction coefficient) of O=C(O)c1ccccc1-c1c2ccc(=O)cc-2oc2cc(O)ccc12 ?
Result block: 80000 M⁻¹ cm⁻¹

Query block: Data request, read-out ε (extinction coefficient), for O=C(O)c1ccccc1-c1c2c3ccccc3c(=O)cc-2oc2cc(O)c3ccccc3c12
Result block: 81000 M⁻¹ cm⁻¹

---
Query block: Requested read-out: ε (extinction coefficient). Entry: O=C(O)c1ccccc1-c1c2ccc3c(Br)c(O)ccc3c2oc2c1ccc1c(Br)c(=O)ccc12
Result block: 32000 M⁻¹ cm⁻¹

Query block: What value of measured ε (extinction coefficient) is listed for CN(C)c1ccc2c(-c3ccccc3C(=O)O)c3ccc(=O)cc-3oc2c1 ?
Result block: 57000 M⁻¹ cm⁻¹

Query block: Bench note: what ε (extinction coefficient) did O=C(O)c1ccccc1-c1c2ccc3cc(O)ccc3c2oc2c1ccc1cc(=O)ccc12 show?
Result block: 44000 M⁻¹ cm⁻¹

Query block: State the recorded ε (extinction coefficient) for this entry: O=c1ccc2c(ccc3c(-c4ccccc4S(=O)(=O)O)c4ccc5cc(O)ccc5c4oc32)c1
Result block: 36000 M⁻¹ cm⁻¹
